System: BCL2 G101V
procedure.summary: TR-FRET competitive binding assay, BCL2 G101V
Set-up: species or system human
condition.info: ratio Ki BCL2 G101V / Ki BCL2 WT
observable: TR_FRET EKI G101V/WT selectivty ratio
Answers are plain numbers.

Solved entries (count: 3):
Cc1c(N(C(=O)c2cc(-c3cc4c(cc3C(=O)N3Cc5ccccc5C[C@H]3C)CN(C(=O)C(F)(F)c3ccc(N5CCN(C)CC5)cc3)CC4)n(C)c2C)c2ccc(O)cc2)cc(C#N)n1C
4.8
Cc1c(N(C(=O)c2cc(-c3cc4c(cc3C(=O)N3Cc5ccccc5C[C@H]3CN3CCCCC3)CN(C(=O)Cc3ccc(OCCN5CCOCC5(C)C)cc3)CC4)n(C)c2C)c2ccc(O)cc2)cc(C#N)n1C
4.2
COC[C@@H]1Cc2ccccc2CN1C(=O)c1cc2c(cc1-c1cc(C(=O)N(c3ccc(O)cc3)c3cc(C#N)n(C)c3C)c(C)n1C)CCN(C(=O)Cc1ccc(OCCC3CCOCC3)cc1F)C2
2.3

# next compound below
Query block: Please report the measured TR_FRET EKI G101V/WT selectivty ratio for `Cc1ccc(N(C(=O)c2cc(-c3cc4c(cc3C(=O)N3Cc5ccccc5C[C@H]3C)CN(C(=O)Cc3ccc(OCCN5CCOCC5)cc3F)CC4)n(C)c2C)c2ccccc2)cc1C#N`
Result block: 23.3

---

Give Platelet loss (%) 24 h for every item shown.
Tested on: platelets
procedure.summary: Platelet depletion in SCID mice
Type: in vivo
condition.info: 25 mg/kg IV bolus, 24 h after dosing, vs control group

Cc1c(N(C(=O)c2cc(-c3cc4c(cc3C(=O)N3Cc5ccccc5C[C@H]3C)CN(C(=O)Cc3ccc(C5CCN(CCF)CC5)c(F)c3)CC4)n(C)c2C)c2ccc(O)cc2)cc(C#N)n1C
15.2%
Cc1c(N(C(=O)c2cc(-c3cc4c(cc3C(=O)N3Cc5ccccc5C[C@H]3C)CN(S(=O)(=O)Cc3ccccc3)CC4)n(C)c2C)c2ccc(O)cc2)cc(C#N)n1C
12.5%
Cc1c(N(C(=O)c2cc(-c3cc4c(cc3C(=O)N3Cc5ccccc5C[C@H]3C)CN(C(=O)Cc3ccc(OCCN5CCSCC5)cc3)CC4)n(C)c2C)c2ccc(O)cc2)cc(C#N)n1C
33.9%
Cc1c(N(C(=O)c2cc(-c3cc4c(cc3C(=O)N3Cc5ccccc5C[C@H]3CN3CCOCC3)CN(C(=O)Cc3ccc(OCCC5CCOCC5)cc3F)CC4)n(C)c2C)c2ccc(O)cc2)cc(C#N)n1C
22.5%
Cc1c(N(C(=O)c2cc(-c3cc4c(cc3C(=O)N3Cc5ccccc5C[C@H]3C)CN(C(=O)Cc3ccc(OCCC5CCOCC5)cc3)CC4)n(C)c2C)c2ccc(O)cc2)cc(C#N)n1C
11.0%

Here are 2 molecules. What values of Platelet loss (%) 24 h were reported for them?
1. Cc1c(N(C(=O)c2cc(-c3cc4c(cc3C(=O)N3Cc5ccccc5C[C@H]3C)CN(C(=O)Cc3ccc(N5CCN(CC(F)(F)F)CC5)cc3)CC4)n(C)c2C)c2ccc(O)cc2)cc(C#N)n1C
2. Cc1c(N(C(=O)c2cc(-c3cc4c(cc3C(=O)N3Cc5ccccc5C[C@H]3C)CN(C(=O)Cc3ccc(N5CCN6CCOC[C@@H]6C5)cc3F)CC4)n(C)c2C)c2ccc(O)cc2)cc(C#N)n1C

Result block:
12.8%
27.6%

Query block: Please report the measured Platelet loss (%) 24 h for `Cc1c(N(C(=O)c2cc(-c3cc4c(cc3C(=O)N3Cc5ccccc5C[C@H]3C)CN(C(=O)Cc3ccc(OCCN5C[C@@H](C)O[C@@H](C)C5)cc3)CC4)n(C)c2C)c2ccc(O)cc2)cc(C#N)n1C`
Result block: 20.2%
